Target: mouse ADAMTS7 (Mus musculus, UniProt Q68SA9)
Construct: Full-length mouse Adamts7 1-1857 (Uniprot Q68SA9, WT or E373Q catalytic mutant); expressed in transfected cells; host or cells: Human Coronary Artery Smooth Muscle Cells (HCA-SMC, Lonza), adenovirus 50 MOI
Sequence (Q68SA9 221-1657): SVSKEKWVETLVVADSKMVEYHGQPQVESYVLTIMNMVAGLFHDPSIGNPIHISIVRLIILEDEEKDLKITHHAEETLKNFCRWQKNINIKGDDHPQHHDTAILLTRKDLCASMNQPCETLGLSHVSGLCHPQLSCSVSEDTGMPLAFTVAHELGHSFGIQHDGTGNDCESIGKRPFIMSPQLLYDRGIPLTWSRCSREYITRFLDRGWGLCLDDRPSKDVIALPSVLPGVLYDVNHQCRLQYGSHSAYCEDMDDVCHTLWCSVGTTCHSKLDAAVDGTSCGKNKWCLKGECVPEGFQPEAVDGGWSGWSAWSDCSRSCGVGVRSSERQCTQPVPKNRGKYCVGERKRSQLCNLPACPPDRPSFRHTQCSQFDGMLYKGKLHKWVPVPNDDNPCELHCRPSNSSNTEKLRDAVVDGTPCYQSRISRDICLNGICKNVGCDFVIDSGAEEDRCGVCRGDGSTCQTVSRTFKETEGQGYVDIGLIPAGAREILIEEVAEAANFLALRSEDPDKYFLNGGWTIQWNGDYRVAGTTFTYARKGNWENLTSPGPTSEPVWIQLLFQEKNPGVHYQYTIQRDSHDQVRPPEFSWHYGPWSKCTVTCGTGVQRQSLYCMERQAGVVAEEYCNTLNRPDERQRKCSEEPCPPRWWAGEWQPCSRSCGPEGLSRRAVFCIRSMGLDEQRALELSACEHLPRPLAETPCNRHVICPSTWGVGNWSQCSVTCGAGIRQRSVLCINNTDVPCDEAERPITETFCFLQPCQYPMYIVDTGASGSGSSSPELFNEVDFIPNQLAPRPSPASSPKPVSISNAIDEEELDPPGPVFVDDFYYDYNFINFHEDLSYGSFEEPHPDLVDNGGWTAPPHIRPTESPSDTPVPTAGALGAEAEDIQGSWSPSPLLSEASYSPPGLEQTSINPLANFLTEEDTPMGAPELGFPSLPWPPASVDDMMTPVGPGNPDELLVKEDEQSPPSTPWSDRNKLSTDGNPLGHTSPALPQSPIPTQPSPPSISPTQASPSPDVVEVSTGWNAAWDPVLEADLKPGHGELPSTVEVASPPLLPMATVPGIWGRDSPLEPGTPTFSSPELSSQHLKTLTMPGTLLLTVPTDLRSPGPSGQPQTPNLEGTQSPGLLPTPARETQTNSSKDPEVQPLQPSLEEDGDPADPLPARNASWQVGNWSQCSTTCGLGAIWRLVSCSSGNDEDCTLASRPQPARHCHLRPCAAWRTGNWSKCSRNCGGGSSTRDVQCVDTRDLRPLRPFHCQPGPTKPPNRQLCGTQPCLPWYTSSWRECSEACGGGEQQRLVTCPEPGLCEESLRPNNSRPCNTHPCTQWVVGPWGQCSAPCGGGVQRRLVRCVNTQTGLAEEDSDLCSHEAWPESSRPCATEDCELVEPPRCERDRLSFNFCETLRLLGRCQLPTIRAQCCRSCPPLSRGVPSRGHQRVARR
Test: TMT10 TAILS N-terminomics, SMC2 experiment (process replicates, trypsin/AspN digest)
Format: cell-based
Details: log fold change, ADAMTS7 WT over luciferase
Recorded Endpoint: logFC.mWT.over.Lux

Ask: For THBS1_972 (QNDPNWVVR; listed as Homo sapiens) , what is its reported logFC.mWT.over.Lux?
Result: 3.55

Ask: For VASP_229 (AIAGAKLR; listed as Homo sapiens) , what is its reported logFC.mWT.over.Lux?
Result: 4.48

Ask: For SRGN_60 (LPGESNKIPR; listed as Homo sapiens) , what is its reported logFC.mWT.over.Lux?
Result: 3.57

Ask: For SRGN_50 (LEEKGPMFELLPGESNKIPR; listed as Homo sapiens) , what is its reported logFC.mWT.over.Lux?
Result: 3.21

Ask: For TGFBI_50 (AVQKVIGTNR; listed as Homo sapiens) , what is its reported logFC.mWT.over.Lux?
Result: 0.96

Ask: For VIM_333 (LKGTNESLER; listed as Homo sapiens) , what is its reported logFC.mWT.over.Lux?
Result: 4.37

a = TGFBI_208 (GIVTVNCAR; listed as Homo sapiens)
b = VASN_138 (HIQPGAFDTLDR; listed as Homo sapiens)
c = SRGN_59 (LLPGESNKIPR; listed as Homo sapiens)
Ask: Please put the entries in order of rising logFC.mWT.over.Lux. Give the order by naming the labels one after another as requested.
Result: a, b, c

a = TGFBI_534 (EGVYTVFAPTNEAFR; listed as Homo sapiens)
b = VIM_433 (LVDTHSKR; listed as Homo sapiens)
Ask: Which record would sort first by descending logFC.mWT.over.Lux, a or b ? Identify your selection by its label.
Result: b
